- System: human coagulation factor XI protein
- test.description: In vivo activity in human coagulation factor XI model mice (Experimental Example 3), plasma FXI protein by ELISA
- measurement.parameters: humanized mice, single subcutaneous 5 mg/kg, D63
readout.type: Relative inhibition rate (%) of FXI protein
Value expressed in %; do not type the unit.

// returns reported Relative inhibition rate (%) of FXI protein for input TD02M01L01: siRNA ligand conjugate: TD02M01 with L01 (GalNAc) ligand at 3' end of sense strand SEQ ID NO 33; antisense SEQ ID NO 34 (sense GGATGATTTTCTTATATCA; antisense TGATATAAGAAAATCATCCTG; GalNAc L01 ligand at sense 3' end, 2'-OMe/2'-F, pattern not given here)
69.0

---

- System: human coagulation factor XI protein
- test.description: In vivo activity in human coagulation factor XI model mice (Experimental Example 3), plasma FXI protein by ELISA
- measurement.parameters: humanized mice, single subcutaneous 5 mg/kg, D63
readout.type: Relative inhibition rate (%) of FXI protein
Use % as the unit, but write only the number.

// known answers, use as guide
substance	test.result
TD01M02L01: siRNA ligand conjugate: TD01M02 with L01 (GalNAc) ligand at 3' end of sense strand SEQ ID NO 31; antisense SEQ ID NO 32 (sense GATCTCCAACTAAAATACT; antisense AGTATTTTAGTTGGAGATCCG; GalNAc L01 ligand at sense 3' end, 2'-OMe/2'-F, pattern not given here)	76.6
TD01M01L01: siRNA ligand conjugate: TD01M01 with L01 (GalNAc) ligand at 3' end of sense strand SEQ ID NO 29; antisense SEQ ID NO 30 (sense GATCTCCAACTAAAATACT; antisense AGTATTTTAGTTGGAGATCCG; GalNAc L01 ligand at sense 3' end, 2'-OMe/2'-F, pattern not given here)	74.4

For the substance TD02M02L01: dsRNA ligand conjugate: TD02M02 with L01 (GalNAc) ligand at 3' end of sense strand SEQ ID NO 35; antisense SEQ ID NO 36 (sense GGATGATTTTCTTATATCA; antisense TGATATAAGAAAATCATCCTG; GalNAc L01 ligand at sense 3' end, 2'-OMe/2'-F, pattern not given here) , what Relative inhibition rate (%) of FXI protein is on record?
66.3

---

- Tested on: human coagulation factor XI protein
- test.description: In vivo activity in human coagulation factor XI model mice (Experimental Example 3), plasma FXI protein by ELISA
- measurement.parameters: humanized mice, single subcutaneous 5 mg/kg, D28
readout.type: Relative inhibition rate (%) of FXI protein
Please respond with the number in % and leave the unit unwritten.

Which Relative inhibition rate (%) of FXI protein value is on record for TD02M01L01: siRNA ligand conjugate: TD02M01 with L01 (GalNAc) ligand at 3' end of sense strand SEQ ID NO 33; antisense SEQ ID NO 34 (sense GGATGATTTTCTTATATCA; antisense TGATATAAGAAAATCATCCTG; GalNAc L01 ligand at sense 3' end, 2'-OMe/2'-F, pattern not given here) ?
87.8

---

- Test system: human coagulation factor XI protein
- test.description: In vivo activity in human coagulation factor XI model mice (Experimental Example 3), plasma FXI protein by ELISA
- measurement.parameters: humanized mice, single subcutaneous 1 mg/kg, D7
readout.type: Relative inhibition rate (%) of FXI protein
Unit % implied. Number only.

For the substance TD01M01L01: siRNA ligand conjugate: TD01M01 with L01 (GalNAc) ligand at 3' end of sense strand SEQ ID NO 29; antisense SEQ ID NO 30 (sense GATCTCCAACTAAAATACT; antisense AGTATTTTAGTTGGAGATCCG; GalNAc L01 ligand at sense 3' end, 2'-OMe/2'-F, pattern not given here) , what Relative inhibition rate (%) of FXI protein is on record?
58.1
